# assayMethodText: NS1 protein of Zika virus - qHTS assay to identify small molecule inhibitors in human HEK 293 cells (AID 1347053); further: nearly all actives have a fitted effect of over 55% in size
# testConditions: HEK293 ZIKV MR766 infection, NS1 TR-FRET, 24 h; series mostly up to 46.1 µM
Records with an inconclusive call do not appear. The source made the active and inactive calls. The call rests on the fitted dose curve; in most records, active means well fitted inhibition curve with a large enough effect; inconclusive means small, poorly fitted or top-dose-only effect; inactive means no such curve, though single readings can be large or run the other way.
Respond with a class label; see 1 (yes) = active, 0 (no) = inactive

-- ask What was the test verdict on Clc1cc(Cl)cc(CNc2ncncc2-c2ccc3c(c2)OCO3)c1 ?
-- reply 1 (yes)

-- ask What do you get for CC(C)C(=O)Oc1ccc(CO)cc1[C@H](CCN(C(C)C)C(C)C)c1ccccc1 ?
-- reply 0 (no)

-- ask What do you get for Cc1ccc(F)c(NC(=O)Nc2ccc(-c3cccc4[nH]nc(N)c34)cc2)c1 ?
-- reply 0 (no)

-- ask What do you get for c1cc(-c2sc(-c3ccncc3)c(-c3ccncc3)c2-c2ccncc2)ccn1 ?
-- reply 0 (no)

-- ask What do you get for C[C@@H]1CCN(C(=O)CC#N)C[C@H]1N(C)c1ncnc2[nH]ccc12 ?
-- reply 0 (no)

New cases:
-- ask What was the test verdict on CO[C@@H](C(=O)N1Cc2[nH]nc(NC(=O)c3ccc(N4CCN(C)CC4)cc3)c2C1)c1ccccc1 ?
-- reply 0 (no)

-- ask What do you get for O=c1[nH]cnc2c1ncn2[C@H]1CC[C@@H](CO)O1 ?
-- reply 0 (no)

-- ask What do you get for COc1cccc([C@@H](C)NCCCc2ccccc2Cl)c1 ?
-- reply 0 (no)

-- ask What do you get for COc1cc(O)c2c(c1)C(=O)c1cc(C)cc(O)c1C2=O ?
-- reply 0 (no)

-- ask What do you get for Oc1ccc(C2CCN(c3ccnc4ccccc34)CC2)cc1O ?
-- reply 0 (no)

-- ask What do you get for Oc1ccc(C2=Cc3ccc(O)cc3OC2)cc1 ?
-- reply 1 (yes)

-- ask What do you get for CCCNC(=O)NS(=O)(=O)c1ccc(Cl)cc1 ?
-- reply 0 (no)
